- target.desc: UniProt:P22303
- Sequence (P22303 32-614): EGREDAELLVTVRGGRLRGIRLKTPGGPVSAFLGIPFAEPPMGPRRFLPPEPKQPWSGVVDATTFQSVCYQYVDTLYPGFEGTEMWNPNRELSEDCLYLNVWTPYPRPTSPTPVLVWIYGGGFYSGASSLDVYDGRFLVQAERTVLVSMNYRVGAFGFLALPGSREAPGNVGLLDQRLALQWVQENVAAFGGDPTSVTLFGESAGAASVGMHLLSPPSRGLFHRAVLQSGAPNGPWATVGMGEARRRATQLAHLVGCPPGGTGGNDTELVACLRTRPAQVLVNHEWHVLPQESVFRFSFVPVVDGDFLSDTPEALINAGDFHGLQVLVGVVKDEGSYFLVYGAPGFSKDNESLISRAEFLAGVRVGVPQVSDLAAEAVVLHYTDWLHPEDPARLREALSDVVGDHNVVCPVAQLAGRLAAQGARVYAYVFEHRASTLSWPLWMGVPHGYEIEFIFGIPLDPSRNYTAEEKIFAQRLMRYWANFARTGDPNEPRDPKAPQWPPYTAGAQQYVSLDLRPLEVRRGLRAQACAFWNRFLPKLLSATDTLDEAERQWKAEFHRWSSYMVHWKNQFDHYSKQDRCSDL
- method: biochemical
- condition.parameters: human recombinant AChE, pH 8.0, mean ± SD (n = 3); read-out: IC50 hAChE
reported.endpoint: IC50 (µM)

| compound | target.desc | reported.endpoint | recorded.number |
| --- | --- | --- | --- |
| COc1cc2c(cc1OC)-c1c(-c3ccc(Cl)cc3)c(C=O)c(-c3ccccc3)n1CC2 [Compound 4] | UniProt:P22303 | IC50 | 7.9 |
| COc1ccc(/N=C/c2cn3c(c2-c2ccc(Cl)cc2)-c2cc(OC)c(OC)cc2CC3)cc1 [Compound 9] | UniProt:P22303 | IC50 | 29.3 |
| COc1cc2c(cc1OC)-c1c(-c3ccc(Cl)cc3)c(/C=N/c3ccc(/N=C/c4cn5c(c4-c4ccc(Cl)cc4)-c4cc(OC)c(OC)cc4CC5)cc3)cn1CC2 [Compound 14] | UniProt:P22303 | IC50 | 7.3 |
| CCOc1ccc(-c2c(/C=N/c3ccc(OC)cc3)cn3c2-c2cc(OCC)c(OCC)cc2CC3)cc1OCC [Compound 7] | UniProt:P22303 | IC50 | 20.2 |
